yeast fitness: recorded values
B1: tRNA (parent)
chain: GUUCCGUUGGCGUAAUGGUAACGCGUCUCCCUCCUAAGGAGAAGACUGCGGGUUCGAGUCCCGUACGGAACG

Variants of: B1
Protocol: yeast fitness relative to wild type (ratio to wild type); higher = fitter; tRNA-Arg(CCU), competitive growth, 37 C, YPD
Fewer inactive variants are shown than the library holds.
// keep it numeric: no unit symbol after the value

Below are worked cases with known answers.
>>> observed_measurement("GUUCCGUUGGCGUAAUGGUAACGGGUCUCCCUCCUAAGGGGAAGACUGCCGGUUCGAGUCCCGUACGGAACG")
0.599
>>> observed_measurement("GUUCCGUUGGCGUAAUGGUCACGCGUCUCCCUCCUUAGCAGAAGACUGCGGGUUCGAGUCCCGUACGGAACG")
0.618
>>> observed_measurement("GUUCCGUUGGCGUAAUGGUAACGCGUCUCCCUCCUAAGGAGAAGAUUGCAGGUUCCAGUCCAGUAUGGAACG")
0.582
>>> observed_measurement("GUUUAGUUGGCGUAAUGGUAACGCGUCUCCCUCCUAAGGAGAAGACUGCGGGUUCGAGUCCCGUACGGAACG")
0.796
>>> observed_measurement("GUUCCGUUGGCGUAAUGGUAACGCGUCUCCCUCCUGAGGAGAAGACUGCGGGUUCGAGUCCCGUACGGAGCG")
0.914
>>> observed_measurement("GUUCCGUUGGCGUCAUGGUAACGCAUCUGCCUCCUAAGGAGAAGAGUGCGGGUUCGAGUCACGUACGGAACG")
0.569
>>> observed_measurement("GUUCCGUUGGCGUCAUGGUAACGCGUCUCCGUCCUAAGGAGAAGACUGCGGGUUCGAGUCCAGUUUGGAACG")
0.506
>>> observed_measurement("GUUCCGUUGGCGUAAUGGUAACGCCUCUCCCUCCUAAGGAGAAGACUGCGGGUUCGACUCCCGUUCGGAACG")
0.928
>>> observed_measurement("GUUCCGUUGGCGUAAUGGUAACGCGUCUCCCUCCUAACGAGAAGACUGCGGGUUCGAGUCCUGUACGGAACG")
0.687
>>> observed_measurement("GUUCCGUUGCCGUAAUGGUAACGCGUCUCCCUCCUAAGGAGAAGACUGCGGGUUCGAGUCCCGUACGUAACG")
0.693

(Q) Query (variant): `GUUCCGUUGGCGUAAUGGUAACGCGUGUCCCUCCUAAGGAGAAGACUGCAGGUUCGAGUGCCGUACGGAACG` ; field requested: yeast fitness
(A) 0.778

(Q) Query (variant): `GUUCCGAUGGCAUAAUGGUAACGCGUCUCCCUCCUAAGGAGAAGACUGCGGGUUCGAGUCCCGUACGGAACG` ; field requested: yeast fitness
(A) 0.783

(Q) Query (variant): `GUUCAGUUGGCGUAAUGGUAACGCGUCUCCUUCCUAAGGAGAAGACUGCGGGUUCGAGUCCCGUACGGAACG` ; field requested: yeast fitness
(A) 0.885

(Q) Query (variant): `GUUCCGUUGGCGUCAUGGUAACGCGUCGCCCUCCUAAGGAGAAGACUGCGGGUUCGAGUCCCGUACGGAACG` ; field requested: yeast fitness
(A) 0.625

(Q) Query (variant): `GCUCCGUUGGCGUAAUGGUAACGCGUCUCCCUCCUAAGGAGAAGACUGCGGGUUCGAGUCCCGUCCGGAACG` ; field requested: yeast fitness
(A) 0.86

(Q) Query (variant): `GUCGCGUUGGCCUAAUGGUAACGCGUCUCCCUCCUAAGGAGAAGACUGCGGGUUCGAGUCCCGUACGGAACG` ; field requested: yeast fitness
(A) 0.687

(Q) Query (variant): `GUUCCGUUGGCGUAAUGGUAACGCGUCUCCCGCCUAAGGAGAAGACUGGGGGUUCGAGUCCCGUACGGAACG` ; field requested: yeast fitness
(A) 0.602

(Q) Query (variant): `GUUUCGUUGGCGUAAUGGUAACGCGUCUCCCUCCUACAGAGAAGACUGCGGGUUCGAGUCCCGUACGGAACG` ; field requested: yeast fitness
(A) 0.613
